# Tested on: PC-12
# protocol text: Antioxidant activity in rat PC12 cells assessed as reduction of NADH-mediated superoxide anion radical formation at 10 uM preincubated for 1 hr followed by NADH addition by NBT assay
# Format: functional
property: Activity (U/L)
Give the number; U/L is assumed, so skip it.

The molecule Clc1ccccc1CN1CCc2sccc2C1 [TICLOPIDINE] showed Activity equal to 26.9592

Briefly, Activity measured for CCCCC(OC(C)=O)c1ccccc1C(=O)Oc1cc(C)nn1-c1ccc(F)cc1 (configuration not stated) : 141.49

get_value(item= CCCCC(OC(C)=O)c1ccccc1C(=O)O (configuration not stated) , readout=Activity) returns 56.1954

GET /value?item= CCCCC1OC(=O)c2ccccc21 (racemic) [RAC-3-N-BUTYLPHTHALIDE] &field=Activity returns 36.7429

// field: Activity; key: `CC1=NN(c2ccc(F)cc2)C(=O)C1` ; value = 117.579

What the record says about CC1=NN(c2ccccc2)C(=O)C1 [EDARAVONE] : Activity is 97.6942

What the record says about CC(=O)Oc1ccccc1C(=O)O [ASPIRIN] : Activity is 79.3793

----------
# protocol text: Antiplatelet activity in rabbit platelet rich plasma assessed as inhibition of ADP-induced platelet aggregation at 0.1 mM preincubated for 5 mins followed by ADP addition measured after 5 mins by Born's turbidimetric method relative to control
# Assay type: functional
# particulars: Oryctolagus cuniculus
property: inhibition at 100 µM (%)
Reply numerically in %, unit not repeated.

Record CCCCC(OC(C)=O)c1ccccc1C(=O)Oc1cc(C(F)(F)F)nn1-c1ccc(C)cc1 (stereo not given) , field inhibition at 100 µM: 25.5

The reported inhibition at 100 µM of the compound CCCCC(OC(C)=O)c1ccccc1C(=O)Oc1cc(C)nn1-c1ccccc1 (stereo not given) was 23

The measured inhibition at 100 µM associated with CCCCC(OC(C)=O)c1ccccc1C(=O)Oc1cc(C(F)(F)F)nn1-c1ccc(OC)cc1 (stereo not given) reads 19.9

So for CCCCC(OC(C)=O)c1ccccc1C(=O)Oc1cc(C)nn1-c1ccc(F)cc1 (stereo not given) , the logged inhibition at 100 µM turned out to be 31.8

The reported inhibition at 100 µM of the compound CCCCC1OC(=O)c2ccccc21 (racemic) [RAC-3-N-BUTYLPHTHALIDE] was 22.9

----------
# protocol text: Neuroprotective activity against H2O2-induce cell damage in rat PC12 cells assessed as cell viability at 10 uM preincubated for 1 hr followed by H2O2 induction measured after 3 hrs by MTT assay (reference value: 50.85%)
# Type: functional
# particulars: PC-12, read-out: Activity
property: viability at 10 µM (%)
Form entry: value (%) — number only.

What the record says about CCCCC(OC(C)=O)c1ccccc1C(=O)Oc1cc(C)nn1-c1ccc(C)cc1 (centres undefined) : viability at 10 µM is 86

Entry under test: `CC(=O)Oc1ccccc1C(=O)O` . Its viability at 10 µM was 77.4

Form field viability at 10 µM, entry CCCCC(OC(C)=O)c1ccccc1C(=O)Oc1cc(C(F)(F)F)nn1-c1ccc(Cl)cc1 (centres undefined) : 83

Entry under test: `CC1=NN(c2ccccc2)C(=O)C1` . Its viability at 10 µM was 76.9

Field viability at 10 µM (entry CCCCC(OC(C)=O)c1ccccc1C(=O)Oc1cc(C)nn1-c1ccc([N+](=O)[O-])cc1 (centres undefined) ) reads 85.2

The compound identified as CCCCC(OC(C)=O)c1ccccc1C(=O)Oc1cc(C(F)(F)F)nn1-c1ccc([N+](=O)[O-])cc1 (centres undefined) registered its viability at 10 µM at 87.3

Short answer for CCCCC1OC(=O)c2ccccc21 (racemic) [RAC-3-N-BUTYLPHTHALIDE] : viability at 10 µM was 71

Per the records, this compound ( `Clc1ccccc1CN1CCc2sccc2C1` ) has viability at 10 µM equal to 67.2

So for CCCCC(OC(C)=O)c1ccccc1C(=O)Oc1cc(C)nn1-c1ccc(F)cc1 (centres undefined) , the logged viability at 10 µM turned out to be 93.3

----------
# protocol text: Antiplatelet activity in rabbit platelet rich plasma assessed as inhibition of ADP-induced platelet aggregation at 0.1 mM preincubated for 5 mins followed by ADP addition measured after 5 mins by Born's turbidimetric method relative to control
# Format: functional
# particulars: Oryctolagus cuniculus
Answer each item with its documented inhibition at 100 µM.
// return numeric value only (unit: %, not printed)

Entry `CC1=NN(c2ccc(F)cc2)C(=O)C1` — recorded inhibition at 100 µM = 13.5

Documented inhibition at 100 µM of CCCCC(OC(C)=O)c1ccccc1C(=O)Oc1cc(C)nn1-c1ccc(OC)cc1 (centres undefined) : 30.2

Consider CCCCC(OC(C)=O)c1ccccc1C(=O)Oc1cc(C(F)(F)F)nn1-c1ccc(F)cc1 (centres undefined) . Its measured inhibition at 100 µM is 13.6

Form: molecule = CCCCC(OC(C)=O)c1ccccc1C(=O)Oc1cc(C)nn1-c1ccc(C)cc1 (centres undefined) ; inhibition at 100 µM = 21.3

----------
# protocol text: Antiplatelet activity in rabbit platelet rich plasma assessed as inhibition of ADP-induced platelet aggregation at 0.1 mM preincubated for 5 mins followed by ADP addition measured after 5 mins by Born's turbidimetric method relative to control
# Format: functional
# particulars: Oryctolagus cuniculus
Class rule met: inhibition at 100 µM at least 30%. Class rule not met: inhibition at 100 µM below 30%.

Has CCCCC(OC(C)=O)c1ccccc1C(=O)Oc1cc(C)nn1-c1ccc([N+](=O)[O-])cc1 (stereo not given) a recorded inhibition at 100 µM greater than or equal to 30%? rule met

Record `Clc1ccccc1CN1CCc2sccc2C1` ; criterion: inhibition at 100 µM no lower than 30%. Met? rule not met

Record CCCCC(OC(C)=O)c1ccccc1C(=O)O (stereo not given) ; criterion: inhibition at 100 µM no lower than 30%. Met? rule not met

In plain terms: is recorded inhibition at 100 µM at least 30% for `CC1=NN(c2ccccc2)C(=O)C1` ? rule not met

Kindly determine if inhibition at 100 µM recorded for CCCCC(OC(C)=O)c1ccccc1C(=O)Oc1cc(C(F)(F)F)nn1-c1ccc(Cl)cc1 (stereo not given) is above or exactly 30%. rule not met

Hello, I need to know if CCCCC(OC(C)=O)c1ccccc1C(=O)Oc1cc(C)nn1-c1cccc(Cl)c1 (stereo not given) has measured inhibition at 100 µM not below 30%. Thanks! rule met

Exam item: decide whether the reported inhibition at 100 µM for CCCCC(OC(C)=O)c1ccccc1C(=O)Oc1cc(C(F)(F)F)nn1-c1cccc(Cl)c1 (stereo not given) is at least 30%. rule met

Given CCCCC(OC(C)=O)c1ccccc1C(=O)Oc1cc(C(F)(F)F)nn1-c1ccccc1 (stereo not given) , state whether its inhibition at 100 µM is at least 30%. rule not met

hey, is inhibition at 100 µM for this one >= 30%? CCCCC(OC(C)=O)c1ccccc1C(=O)Oc1cc(C(F)(F)F)nn1-c1ccc([N+](=O)[O-])cc1 (stereo not given) rule not met

----------
# System: PC-12
# protocol text: Antioxidant activity in rat PC12 cells assessed as reduction of H2O2/Fe2+-mediated hydroxyl radical formation at 10 uM preincubated for 1 hr followed by H2O2/Fe2+ addition by Griess assay
# Type: functional
Decision: Activity beneath 30 U/ml gives t; Activity meeting or exceeding 30 U/ml gives f.

Hello, is Activity of the following molecule strictly smaller than 30 U/ml? CCCCC1OC(=O)c2ccccc21 (racemic) [RAC-3-N-BUTYLPHTHALIDE] t

Report whether reported Activity is lower than 30 U/ml (strictly) for CCCCC(OC(C)=O)c1ccccc1C(=O)O (configuration not stated) t

Criterion: Activity strictly below 30 U/ml. Is it met by CC1=NN(c2ccccc2)C(=O)C1 [EDARAVONE] ? t

Say whether its Activity is strictly beneath 30 U/ml. Entry: `CC1=NN(c2ccc(F)cc2)C(=O)C1` f

Determine whether this molecule shows Activity lower than 30 U/ml (ties excluded): CCCCC(OC(C)=O)c1ccccc1C(=O)Oc1cc(C)nn1-c1ccc(F)cc1 (configuration not stated) f

Input Clc1ccccc1CN1CCc2sccc2C1 [TICLOPIDINE] ; condition: Activity strictly below 30 U/ml. Does it hold? t
